Target: HLA-A*31:01
Assay: IEDB peptide-MHC binding, purified MHC/competitive/fluorescence; filed as Kd, often an IC50 or EC50 that approximates it; bounds were set here for any values at or beyond the usual limits of such assays
Conditions: source organism: Escherichia coli
pKd: −log10 of the molar value.
valueKind: pKd

> print(dat)
   sequenceinput  valuekind  resultnumber
1      RYWRLRYRI        pKd          8.68

====

Target: HLA-A*24:02
Test: IEDB peptide-MHC binding, purified MHC/competitive/radioactivity; filed as Kd, often an IC50 or EC50 that approximates it; bounds were set here for any values at or beyond the usual limits of such assays
Conditions: source organism: Dengue virus 3 Martinique/1243/1999
valueKind: Kd

> print(dat)
   sequenceinput  result
1      VYRIKQQGI  464 nM

====

Biological target: HLA-B*15:01
Assay: IEDB peptide-MHC binding, purified MHC/competitive/fluorescence; bounds were set here for any values at or beyond the usual limits of such assays
Details: source organism: Zaire ebolavirus
Recorded IC50 by entry
valueKind: IC50

> print(dat)
   sequenceinput     result
1      LSFASLFLP  ≥ 97.8 µM
2      RFKRTSFFL    9.58 µM
3      QSVGHMMVI   ≥ 143 µM

====

Target: HLA-B*46:01
Experiment: IEDB peptide-MHC binding, purified MHC/competitive/fluorescence; filed as Kd, often an IC50 or EC50 that approximates it; bounds were set here for any values at or beyond the usual limits of such assays
Conditions: source organism: Rickettsia sibirica 246
pKd: −log10 of the molar value.
valueKind: pKd

> print(dat)
   sequenceinput  result
1      YLKKLDDFY  ≤ 4.70

====

Molecular target: HLA-B*18:01
Test: IEDB peptide-MHC binding, purified MHC/direct/fluorescence; filed as Kd, often an IC50 or EC50 that approximates it; bounds were set here for any values at or beyond the usual limits of such assays
Conditions: source organism: Brucella abortus 2308
valueKind: Kd (nM)

> print(dat)
   sequenceinput  resultnumber
1      IEVKFHPIL             6

====

Biological target: HLA-B*39:01
Assay: IEDB peptide-MHC binding, purified MHC/direct/fluorescence; filed as Kd, often an IC50 or EC50 that approximates it; bounds were set here for any values at or beyond the usual limits of such assays
Conditions: source organism: Mycobacterium tuberculosis str. Haarlem
valueKind: Kd

> print(dat)
   sequenceinput  valuekind   result
1      RVACRDVEV         Kd  ≥ 20 µM

====

Target: HLA-A*31:01
Experiment: IEDB peptide-MHC binding, purified MHC/competitive/radioactivity; filed as Kd, often an IC50 or EC50 that approximates it; bounds were set here for any values at or beyond the usual limits of such assays
Settings: source organism: Triticum aestivum
pKd: −log10 of the molar value.
valueKind: pKd

> print(dat)
   sequenceinput  resultnumber
1     HAIILHQQQK          4.96

====

Target: HLA-A*03:01
Test: IEDB peptide-MHC binding, purified MHC/direct/fluorescence; filed as Kd, often an IC50 or EC50 that approximates it; bounds were set here for any values at or beyond the usual limits of such assays
Settings: source organism: Giardia lamblia ATCC 50803
valueKind: Kd

> print(dat)
   sequenceinput  studysystem  valuekind     result
1      VLLISDPGL  HLA-A*03:01         Kd    ≥ 20 µM
2      SHSIPNGLL  HLA-A*03:01         Kd    ≥ 20 µM
3      ETESVNSNY  HLA-A*03:01         Kd    ≥ 20 µM
4      WLKEKHEEL  HLA-A*03:01         Kd    ≥ 20 µM
5      IMKQAASMK  HLA-A*03:01         Kd  0.0635 µM
